Test Method Notes: Distribution coefficient, logD of compound at pH 8 by Sirius T3 apparatus based potentiometric titration analysis
Format: physicochemical
Measurement Conditions: octanol/water
Threshold-based label: logD under -0.7 gives condition met, logD not under -0.7 gives condition not met.

Cc1cccc(CC(=O)NS(C)(=O)=O)c1
condition met
Cc1cccc(C2=C(O)COC2=O)c1
condition met
Cc1cccc(-c2nnn[nH]2)c1
condition met

Problem: Does the reported logD of `Cc1cccc(Cc2nsc(O)n2)c1` stay below -0.7?
Solution: condition not met

Problem: Does the reported logD of `Cc1cccc(Cc2nnn[nH]2)c1` stay below -0.7?
Solution: condition met

Problem: Does the reported logD of `Cc1cccc(-c2noc(O)n2)c1` stay below -0.7?
Solution: condition met

Problem: Does the reported logD of `Cc1cccc(-c2nsc(O)n2)c1` stay below -0.7?
Solution: condition not met

Problem: Does the reported logD of `Cc1cccc(Cc2noc(O)n2)c1` stay below -0.7?
Solution: condition not met
